// molecules with reported Ki on Dual specificity protein kinase TTK (Homo sapiens, UniProt P33981), multi-publication
Sequence (P33981 whole entry): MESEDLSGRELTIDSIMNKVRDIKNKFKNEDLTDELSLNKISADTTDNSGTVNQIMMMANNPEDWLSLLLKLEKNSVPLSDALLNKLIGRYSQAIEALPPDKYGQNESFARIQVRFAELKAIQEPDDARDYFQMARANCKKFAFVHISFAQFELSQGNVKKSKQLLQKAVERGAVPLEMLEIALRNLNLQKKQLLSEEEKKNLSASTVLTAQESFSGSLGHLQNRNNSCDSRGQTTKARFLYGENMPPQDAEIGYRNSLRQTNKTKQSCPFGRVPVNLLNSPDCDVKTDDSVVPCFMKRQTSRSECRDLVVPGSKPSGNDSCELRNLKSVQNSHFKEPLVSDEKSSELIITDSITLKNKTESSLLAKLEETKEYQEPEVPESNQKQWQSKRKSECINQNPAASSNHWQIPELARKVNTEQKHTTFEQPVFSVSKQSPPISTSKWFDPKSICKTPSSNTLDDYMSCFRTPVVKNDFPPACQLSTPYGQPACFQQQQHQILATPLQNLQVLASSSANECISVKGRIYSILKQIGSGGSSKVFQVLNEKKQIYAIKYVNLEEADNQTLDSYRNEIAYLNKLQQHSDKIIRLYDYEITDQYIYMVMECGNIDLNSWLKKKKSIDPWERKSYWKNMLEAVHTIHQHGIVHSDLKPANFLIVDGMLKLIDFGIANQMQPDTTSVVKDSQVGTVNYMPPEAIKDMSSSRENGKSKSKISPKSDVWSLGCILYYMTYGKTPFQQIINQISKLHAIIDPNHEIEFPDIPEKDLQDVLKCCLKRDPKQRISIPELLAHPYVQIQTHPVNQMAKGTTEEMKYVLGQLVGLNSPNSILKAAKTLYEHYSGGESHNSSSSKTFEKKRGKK
Just the number please, in nM, no unit attached.

>>> df
                                 mol_smiles                              study_target  unit  test_result
0       CN(C)Cc1ccc(-c2c[nH]c(=O)c(N)c2)cc1  Dual specificity protein kinase TTK (Homo sapiens, UniProt P33981)    nM       367000
1  Cc1cc(-c2cnn3c(NCC4CCOCC4)nc(Oc4ccccc4)nc23)ccc1C(=O)NC1CC1  Dual specificity protein kinase TTK (Homo sapiens, UniProt P33981)    nM         0.77
2  COc1cc(-c2cnc(C)n2C)ccc1Nc1ncc2cc(C)nc(NCC(C)(C)C)c2n1  Dual specificity protein kinase TTK (Homo sapiens, UniProt P33981)    nM        0.094

State Ki on Dual specificity protein kinase TTK (Homo sapiens, UniProt P33981). Entry: `COc1cc(-c2nncn2C)ccc1Nc1ncc2cc(C)nc(NCC(C)(C)C)c2n1`
0.13

State Ki on Dual specificity protein kinase TTK (Homo sapiens, UniProt P33981). Entry: `CCOc1cc(-c2nncn2C)ccc1Nc1ncc2cc(C)nc(N3CCC3(C)C)c2n1`
4
